Molecular target: human αVβ6 integrin on cells (human, UniProt P06756 31-1048; P18564 22-788)
Sequence (P06756 31-1048, chain 1 of 2): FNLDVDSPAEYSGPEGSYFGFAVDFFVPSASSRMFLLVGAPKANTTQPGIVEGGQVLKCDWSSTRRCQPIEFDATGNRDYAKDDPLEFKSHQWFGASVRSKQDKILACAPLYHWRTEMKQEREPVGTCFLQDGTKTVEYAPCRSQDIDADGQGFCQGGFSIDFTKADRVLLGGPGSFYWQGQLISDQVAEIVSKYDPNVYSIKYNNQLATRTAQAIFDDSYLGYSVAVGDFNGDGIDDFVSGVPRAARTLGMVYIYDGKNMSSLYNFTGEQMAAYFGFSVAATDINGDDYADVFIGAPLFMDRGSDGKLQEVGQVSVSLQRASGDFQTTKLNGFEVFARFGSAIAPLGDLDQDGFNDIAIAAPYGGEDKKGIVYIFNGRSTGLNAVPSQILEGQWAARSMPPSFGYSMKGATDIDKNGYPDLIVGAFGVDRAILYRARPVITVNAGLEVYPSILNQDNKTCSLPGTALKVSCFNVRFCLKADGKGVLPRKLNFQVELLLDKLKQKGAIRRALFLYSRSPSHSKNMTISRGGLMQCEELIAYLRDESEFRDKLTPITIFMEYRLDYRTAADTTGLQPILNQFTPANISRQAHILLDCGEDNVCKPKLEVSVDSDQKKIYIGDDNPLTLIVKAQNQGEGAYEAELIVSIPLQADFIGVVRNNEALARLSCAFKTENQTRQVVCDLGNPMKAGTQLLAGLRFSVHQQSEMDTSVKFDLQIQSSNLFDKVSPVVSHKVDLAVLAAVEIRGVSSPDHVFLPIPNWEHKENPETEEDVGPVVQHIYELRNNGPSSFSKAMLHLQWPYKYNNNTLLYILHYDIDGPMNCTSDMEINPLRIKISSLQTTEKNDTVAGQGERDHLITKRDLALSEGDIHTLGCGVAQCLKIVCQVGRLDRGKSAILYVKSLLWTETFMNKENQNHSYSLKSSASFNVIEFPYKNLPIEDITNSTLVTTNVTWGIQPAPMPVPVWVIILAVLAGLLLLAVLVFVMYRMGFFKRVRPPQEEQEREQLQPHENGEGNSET
Sequence (P18564 22-788, chain 2 of 2): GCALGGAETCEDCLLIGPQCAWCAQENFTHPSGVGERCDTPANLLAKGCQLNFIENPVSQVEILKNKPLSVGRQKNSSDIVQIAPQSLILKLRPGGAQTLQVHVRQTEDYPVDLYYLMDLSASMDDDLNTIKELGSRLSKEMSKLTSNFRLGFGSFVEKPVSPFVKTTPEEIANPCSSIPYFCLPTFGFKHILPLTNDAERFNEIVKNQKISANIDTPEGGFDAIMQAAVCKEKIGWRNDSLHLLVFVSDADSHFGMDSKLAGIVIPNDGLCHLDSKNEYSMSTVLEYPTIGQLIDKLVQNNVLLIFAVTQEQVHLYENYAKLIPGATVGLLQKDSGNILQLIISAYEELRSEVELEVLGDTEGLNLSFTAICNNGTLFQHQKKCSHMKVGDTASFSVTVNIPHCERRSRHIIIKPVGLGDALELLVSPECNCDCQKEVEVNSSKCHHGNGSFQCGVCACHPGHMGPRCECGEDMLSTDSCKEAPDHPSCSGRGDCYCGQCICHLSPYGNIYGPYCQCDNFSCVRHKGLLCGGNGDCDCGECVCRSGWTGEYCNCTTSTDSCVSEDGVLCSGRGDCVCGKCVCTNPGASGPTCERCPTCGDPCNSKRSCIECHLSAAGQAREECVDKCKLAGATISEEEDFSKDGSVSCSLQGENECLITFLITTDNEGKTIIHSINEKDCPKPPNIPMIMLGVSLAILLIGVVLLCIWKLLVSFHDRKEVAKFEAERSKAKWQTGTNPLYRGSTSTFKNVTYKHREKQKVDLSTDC
Test: cell-based or functional assay
property name: Average % Inhibition of adhesion (%)
A number alone suffices; assume %.

Here's what some known entries look like.
sc 161 (antibody, V domains shown, kappa light chain) VH: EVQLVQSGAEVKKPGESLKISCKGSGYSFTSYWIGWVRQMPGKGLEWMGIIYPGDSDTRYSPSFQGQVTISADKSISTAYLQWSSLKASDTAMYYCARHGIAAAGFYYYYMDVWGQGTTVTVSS VL: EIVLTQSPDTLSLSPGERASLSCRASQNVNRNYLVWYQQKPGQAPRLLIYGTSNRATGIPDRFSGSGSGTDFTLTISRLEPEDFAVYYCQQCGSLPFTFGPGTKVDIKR    102
sc 298 (antibody, V domains shown, lambda light chain) VH: QVQLVESGGGVVQPGRSLRLSCAASGFTFSSYGMHWVRQAPGKGLEWVAVIWYGGSNKYYADSVKGRFTISRDNSKNTLYLQMNSLRAEDTAVYYCARDLAARRGDYYYYGMDVWGQGTTVTVSS VL: SSELTQDPVVSVALGQTVRITCQGDSLRSYYLSWYQQKPGQAPVLVIYGKNNRPSGIPDRFSGSNSGNTASLTITGAQAEDEADYYCNSRDSSGNHLFGGGTKLTVL    100

[in] I am curious: what Average % Inhibition of adhesion value has been reported for sc 254 (antibody, V domains shown, kappa light chain) VH: QVQLQESGPGLVKPSQTLSLTCTVSGGSISSGGYYWSWIRQHPGKGLEWIGYIYYSGSTYYNPSLKSRVTISVDTSKNQFSLKLSSVTAADTAMYYCARYRGPAAGRGDFYYFGMDVWGQGTTVTVSS VL: DIVMTQTPLSLSVTPGQPASIFCKSSQSLLNSDGKTYLCWYLQKPGQPPQLLIYEVSNRFSGVPDRFSGSGSGTDFTLKISRVEAEDVGVYYCMQGIQLPWAFFGQGTKVEIK ?
[out] 102

[in] I am curious: what Average % Inhibition of adhesion value has been reported for sc 188 (antibody, V domains shown, kappa light chain) VH: QVQLQESGPGLVKPSQTLSLTCTVSGGSISSGVYYWTWIRQHPGNGLEWIGYIYYSGSTSYNPSLKSRVTISVDTSKKQFSLNLTSVTAADTAVYYCAREGPLRGDYYYGLDVWGQGTTVTVSS VL: EIVLTQSPGTLSLSPGERATLSCRAGQTISSRYLAWYQQKPGQAPRPLIYGASSRATGIPDRFSGSGSGTDFTLTISRLEPEDFAVYYCQQYGSSPRTFGQGTKVEIK ?
[out] 101

[in] I am curious: what Average % Inhibition of adhesion value has been reported for sc 277 (antibody, V domains shown, lambda light chain) VH: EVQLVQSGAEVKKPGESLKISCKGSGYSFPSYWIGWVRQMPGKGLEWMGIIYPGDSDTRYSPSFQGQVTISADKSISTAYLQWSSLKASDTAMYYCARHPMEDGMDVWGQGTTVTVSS VL: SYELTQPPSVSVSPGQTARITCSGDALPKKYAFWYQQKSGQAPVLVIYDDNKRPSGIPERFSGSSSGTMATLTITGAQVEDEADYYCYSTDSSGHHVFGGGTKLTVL ?
[out] 100
